Just for reference, PubChem BioAssay (NCI) is where these values come from.

- Test system: MDA-MB-435 melanoma
- PROTOCOL: NCI-60 one-dose screen, 48 h (100 = growth as untreated, 0 = no growth, -100 = all killed)
- CONDITION_SET: 10 µM unless noted
This is part of a sample that, as a whole, favours compounds with a hit. Of some 83,000 tested, about 20% had one in any assay.

MOLECULE: CN(C)C(=O)Oc1ccccc1
UNIT_OF_MEASUREMENT: %
growth: 112
--
MOLECULE: N#CC1C(C#N)C2CCC1C1C2N1c1ccccc1 (stereo not drawn)
UNIT_OF_MEASUREMENT: %
growth: 107
--
MOLECULE: O=[N+]([O-])c1cc([N+](=O)[O-])c(Cl)cc1Cl
UNIT_OF_MEASUREMENT: %
growth: -66.5

---

- Test system: 786-0 renal
- PROTOCOL: NCI-60 one-dose screen, 48 h (100 = growth as untreated, 0 = no growth, -100 = all killed)
- CONDITION_SET: 10 µM unless noted
This is part of a sample that, as a whole, favours compounds with a hit. Of some 83,000 tested, about 20% had one in any assay.

COMPOUND: COc1ccc(/C=C\c2cc(OC)c(OC)c(OC)c2)c(NS(=O)(=O)c2ccc(F)cc2)c1O
growth (%): 18.4
--
COMPOUND: COC(=O)[C@@H](C)C[C@H](Cc1ccccc1)NC(=O)c1nc([C@@H](C[C@H](C(C)C)N(C)C(=O)[C@@H](NC(=O)[C@H]2CC(=O)CCN2C)C(C)C)OC(C)=O)sc1C(C)C
growth (%): 6.83
--
COMPOUND: COC(C(=O)[C@@H](O)[C@@H](C)O)[C@@H]1Cc2cc3cc(O[C@H]4C[C@@H](O[C@H]5C[C@@H](O)[C@H](O)C(C)O5)[C@H](O)C(C)O4)c(C)c(O)c3c(O)c2C(=O)[C@H]1O[C@H]1C[C@@H](O[C@H]2C[C@@H](O[C@H]3C[C@@H](O)[C@@H](O)C(C)O3)[C@@H](O)C(C)O2)[C@H](O)C(C)O1 (stereo partly specified)
growth (%): -1.51
--
COMPOUND: Cc1ccc(N2COOC3(OOC2)C2CC4CC(C2)CC3C4)cc1
growth (%): 96.1
--
COMPOUND: Cc1cc(-c2nc3cc(F)ccc3[se]2)cc(F)c1N
growth (%): 103
--
COMPOUND: O=C(c1ccccc1O)c1[nH]c(Cl)c(Cl)c1-n1c(C(=O)c2ccccc2O)cc(Cl)c1Cl
growth (%): -9.15
--
COMPOUND: [Cl][Hg][n]1c(-c2ccco2)nc2ccccc21
growth (%): 107
--
COMPOUND: CC1=C(CNO)C2=C(C)C3(CC3)[C@@](C)(O)C(=O)C2=C1
growth (%): -17.5
--
COMPOUND: CCC1(C)CC(CCNCc2ccccc2O)(c2ccc(C)cc2)CCO1 (stereo unspecified)
growth (%): 101
--
COMPOUND: N/C(=N\N=C\c1ccc(-c2ccccc2)cc1)N[N+](=O)[O-]
growth (%): 40.6
--
COMPOUND: CC(=O)O[C@H](C[C@H](C(C)C)N(C)C(=O)[C@@H](NC(=O)[C@H]1CCCCN1C)C(C)C)c1nc(C(=O)NC2CCC(C(=O)O)CC2)cs1 (stereo partly specified)
growth (%): 46
